System: MCF7R
ASSAY NAME: Cytotoxicity was evaluated at 1 uM concentration in MCF7-R cell line when co-administered with Paclitaxel
Assay type: functional, cell-based
TEST PARAMETERS: Homo sapiens
Answer each item with its documented IC50.
One number for each entry, in nM.

Worked cases, answers included:
>>> test_value("CC(=O)O[C@@]12CO[C@@H]1C[C@H](O)[C@@]1(C)C(=O)[C@H](O)C3=C(C)[C@@H](OC(=O)CCc4ccc5ccccc5c4)C[C@@](O)([C@@H](OC(=O)c4ccccc4)[C@H]21)C3(C)C")
540
>>> test_value("CC(=O)O[C@H]1C(=O)[C@]2(C)[C@@H](OC(=O)/C=C/c3ccc4ccccc4c3)C[C@H]3OC[C@@]3(OC(C)=O)[C@H]2[C@H](OC(=O)c2ccccc2)[C@]2(O)C[C@H](O)C(C)=C1C2(C)C")
36

Please turn your attention to the following entry.
Recorded IC50 for CC(=O)O[C@@]12CO[C@@H]1C[C@H](O)[C@@]1(C)C(=O)[C@H](OC(=O)/C=C/c3ccc(C(=O)c4ccccc4)cc3)C3=C(C)[C@@H](O)C[C@@](O)([C@@H](OC(=O)c4ccccc4)[C@H]21)C3(C)C , please?
42
